Taken from patent US8507690B2.

Where a name gives a salt, the structure may show the parent alone.
Result Type: melting point

Use the examples below as a reference point.
Compound | melting point
CC(=O)Nc1nc(C(=O)Nc2ccc(CNC(=O)NN)cc2)cs1.Cl | 231 to 234 °C
CC(=O)Nc1nc(CCc2cccc(CCNC(=O)NN)c2)cs1.Cl | 176 to 179 °C
CC(=O)Nc1nc(CCc2ccc(CSC(=O)NN)s2)cs1 (as salt: hydrochloride) | 147 to 153 °C
CC(=O)Nc1nc(CCc2ccc(CNC(=O)NN)s2)cs1.Cl | 158 to 161 °C
CC(=O)Nc1nc(C(=O)Nc2ccc(CCOC(=O)NN)cc2)cs1.Cl | 225 to 233 °C
CC(=O)Nc1nc(CCc2cc(C)c(CCCNC(=O)NN)s2)cs1.Cl | 152 to 157 °C
CC(=O)Nc1nc(CCc2cccc(CCOC(=O)NN)c2)cs1.Cl | 138 to 140 °C
CC(=O)Nc1nc(C(=O)Oc2ccc(CCNC(=O)NN)cc2)cs1.Cl | 204 to 207 °C
CC(=O)Nc1nc(CCc2csc(CCCOC(=O)NN)c2)cs1.Cl | 150 to 153 °C

Now consider the entry below.
melting point for CC(=O)Nc1nc(CCc2ccc(COC(=O)NN)cc2F)cs1.Cl is 204 to 208 °C
